Tested on: PBMCs
Assay: in vitro
Assay type: cell-based
Conditions: human
MEASUREMENT_LABEL: CC50
Include the unit after the number when you answer.

What does the record list as CC50 for CN(C)CCOc1cc2c(c3ccccc13)-c1ccccc1C2=O [benfluron] ? 7.09 µM

====

Test: in vitro
Type: cell-based
Details: human, MT-2 cells, mock-infected; 95% CI and R2 in parentheses; read-out: CC50
MEASUREMENT_LABEL: CC50 at 48 h

What does the record list as CC50 at 48 h for CN1CCN(CCOc2cc(C(=O)c3ccccc3)cc3ccccc23)CC1 [Compound 6] ? 20 to 49.7 µM

====

Assay: in vitro
Type: cell-based
Conditions: human, cytotoxic CC50
MEASUREMENT_LABEL: CC50 (µM)
// note: answer is a bare numeric in µM

What does the record list as CC50 for `CN(C)CCOc1cc2c(c3ccccc13)-c1ccccc1C2=O` ? 7.1
